Reported melting point values are given for each entry in this list.

# compound, reported.value
data = [
    ("CC(C)n1nc(-c2nc(OCCN3CCOCC3)c(N)nc2-c2ccccc2)ccc1=O [Example 172]", "139 to 143 °C"),
    ("Cn1nc(-c2nc(NCCNc3ccccc3)c(N)nc2-c2ccccc2)ccc1=O [Example 123]", "181 to 183 °C"),
    ("Cn1nc(-c2ncc(N)nc2-c2ccccc2)ccc1=O [Example 20]", "202 to 204 °C"),
    ("CC(C)n1nc(-c2ncc(N)nc2-c2ccccc2)ccc1=O [Example 9]", "204 to 206 °C"),
    ("Cn1nc(-c2nc(NCCc3ccccn3)c(N)nc2-c2ccccc2)ccc1=O [Example 127]", "224 to 227 °C"),
]

What value of melting point has been recorded for this entry: Cn1nc(-c2nc(-n3cccc3)c(N)nc2-c2ccccc2)ccc1=O [Example 148] 202 to 205 °C

Try this compound too: COc1ccc(CNc2nc(-c3ccccc3Br)c(-c3ccc(=O)n(C(C)C)n3)nc2C#N)cc1 [Example 196] 76 to 78 °C

Try this compound too: CC(C)n1nc(-c2nc(N)cnc2-c2ccccc2)ccc1=O [Example 50] 214 to 217 °C
